- SUBJECT_OF_TEST: T1, AAV9 (adeno-associated virus 9, Assembled 60-mer capsid of VP1/VP2/VP3 (nested products of one cap gene), amine-coupled to a CM5 chip; the letters give one VP1 subunit only.)
- T1 construct: also called adeno-associated virus serotype 9
- ASSAY_TEXT: SPR, AAV amine-coupled to CM5 chip
REPORTED_PROPERTY: Kd (nM)
State just the number; it will be interpreted in nM.

Fill in the blank: the reported Kd of A4-C4 (bispecific antibody) VQLQESGGGLVQAGGSLRLSCAASGSRFSINTMGWYRQAPGKQREFVATVTRGGNTNYAESVKGRFTISRDNAKNTVYLQMNSLRPEDTAVYYCHVDEVRDSSWTTSNIWGQGTQVTVSSGGGGSGGGGSGGGGSVQLQESGGGLVQAGGSLRLSCAASGSRFSINTMGWYRQAPGKQREFVATVTRGGNTNYAESVKGRFTISRDNAKNTVYLQMNSLRPEDTAVYYCHVDEVRDSSWTTSNIWGQGTQVTVSSGGGGSGGGGSGGGGSVQLQESGGGLVQPGGSLRLSCAASGSNFRINTMGWYRQAPGKQRELVATVTRGGSTNYADSVKGRFTISRDNPKDTVYLQMNSLRPEDTAVYYCHVDEVRESSWTTSNLWGQGTQVTVSS is ____. 1.87
